Provenance of the data: patent US20030114445A1

The reader will find MIC measurements below, all made with E. fecium.

Which measured MIC value corresponds to CCc1cc(Nc2cc(=O)n(CCCCCNc3ncc(C#N)c(N)n3)c(=O)[nH]2)ccc1C [Compound 66] ?
80 µg/mL

Can you handle CCc1cc(Nc2cc(=O)n(CCCCCCO)c(=O)[nH]2)ccc1C [Compound 27] next?
5 µg/mL

Again, but for CCc1cc(Nc2cc(=O)n(CCN(CC)CC)c(=O)[nH]2)ccc1C [Compound 14]
20 µg/mL

// next record CCc1cc(Nc2cc(=O)n(C/C=C/C(=O)OC)c(=O)[nH]2)ccc1C [Compound 7]
5 µg/mL

Next entry: CCc1cc(Nc2cc(=O)n(CCN3CCN(C(=O)c4ccccc4)CC3)c(=O)[nH]2)ccc1C [Compound 39]
5 µg/mL

* * *

# experiment-description: Pharmacokinetics in mice (plasma concentration by HPLC)
# Assay type: in vivo
# cond: mouse, plasma, sc, 200 mg/kg, sc, 200 mg/kg, saline solution, (0-180), read-out: AUC(0-t) (converted)
reported-endpoint: AUC(0-t)
# output: number + unit

I would be grateful if you could share the reported AUC(0-t) for CCc1cc(Nc2cc(=O)n(CCCCN3CCOCC3)c(=O)[nH]2)ccc1C.Cl [Compound 59] .
26900 ng·h/mL

* * *

E. fecalis measurements of log10 of MIC, listed per entry.
Hey, these are logged values: log10 of MIC, µg/mL being the unit before logging.

Endpoint output: log10 of MIC of CCOC(=O)CCCn1c(=O)cc(Nc2ccc(C)c(CC)c2)[nH]c1=O [Compound 10] . Value?
0.70

Now the same for CCc1cc(Nc2cc(=O)n(CCCCCCO)c(=O)[nH]2)ccc1C [Compound 27]
0.40

Now consider CCc1cc(Nc2cc(=O)n(CCCCN3CCN(c4nc(C)cc(C(=O)O)n4)CC3)c(=O)[nH]2)ccc1C [Compound 60] .
1.60

Try this molecule next: CCc1cc(Nc2cc(=O)n(CCCCN3CCC(O)(c4ccc(Cl)c(C(F)(F)F)c4)CC3)c(=O)[nH]2)ccc1C [Compound 37]
0.40

Repeat for the following molecule: CCc1cc(Nc2cc(=O)n(CCCCN3CC=C(c4ccc(F)c(C)c4)CC3)c(=O)[nH]2)ccc1C [Compound 82]
1.30

Here is the next molecule: CCc1cc(Nc2cc(=O)n(CCN(CC)CC)c(=O)[nH]2)ccc1C [Compound 14]
1.30

Try this molecule too: CCc1cc(Nc2cc(=O)n(CCCCN3CCN(c4ncc(C(=O)O)c(C(F)(F)F)n4)CC3)c(=O)[nH]2)ccc1C [Compound 65]
1.90

Can you check CCc1cc(Nc2cc(=O)n(CCCCCNc3ncc(C#N)c(N)n3)c(=O)[nH]2)ccc1C [Compound 66] next?
1.90

Same question, CCc1cc(Nc2cc(=O)n(CCCCNCCCCn3cc(C(=O)O)c(=O)c4cc(F)c(Cl)cc43)c(=O)[nH]2)ccc1C [Compound 74] this time
1.30

Please answer likewise for CCc1cc(Nc2cc(=O)n(CCCCN3CCN(c4nc(C)cc(C(=O)OC)n4)CC3)c(=O)[nH]2)ccc1C [Compound 61]
1.30

Follow-up entry: CCc1cc(Nc2cc(=O)n(CC#CCO)c(=O)[nH]2)ccc1C [Compound 13]
1.00

Same read-out for CCc1cc(Nc2cc(=O)n(CCOCCOCCO)c(=O)[nH]2)ccc1C [Compound 21] ?
1.00

And then CCc1cc(Nc2cc(=O)n(CCCC(O)CO)c(=O)[nH]2)ccc1C (stereo not shown) [Compound 23] , what is it?
1.30

Follow-up item: CCc1cc(Nc2cc(=O)n(C/C=C/C(=O)OC)c(=O)[nH]2)ccc1C [Compound 7]
1.30

Then this molecule: CCc1cc(Nc2cc(=O)n(CCCCN3CC=C(c4ccc(C)c(C)c4)CC3)c(=O)[nH]2)ccc1C [Compound 81]
1.00

Consider next the molecule CCc1cc(Nc2cc(=O)n(CCCCCNC(=O)c3cc4ccccc4s3)c(=O)[nH]2)ccc1C [Compound 77] in the same way.
1.90
